Entries annotated with measured Population Mitochondria Different-Phenotype (%)
# Test system: U2OS
# measurementNotes: Multiplex assay against U2OS
# Format: toxicity, cell-based
# measurementContext: human, 24 h, 1 µM, compound concentration 1 uM
observable: Population Mitochondria Different-Phenotype (%)

molecule	val
CN(C)C/C=C/C(=O)Nc1ccc(C(=O)N2CCCC(Nc3ncc(Cl)c(-c4c[nH]c5ccccc45)n3)C2)cc1 (stereo not given)	2%
COc1c(Nc2ccc(S(C)(=O)=O)nc2C)ncnc1OC1CCN(C(=O)OC(C)C)CC1	3%
CN1CCN(c2cc(-c3ccccc3)nc(N)n2)CC1	1%
CC(/C=C1\SC(=S)N(CCCC(=O)Nc2ccc(C(=O)O)c(O)c2)C1=O)=C\c1ccccc1	1%
c1cc(OCCCN2CCCCC2)ccc1CN1CCCCC1	2%
